Quick list: IC50 per entry.
test system: ovarian cancer cell line A2780; assay: MTT cell viable assay (cytotoxicity and anti-proliferation); type: cell-based; settings: Homo sapiens
Number in µM, nothing else.

Task: I have this compound here, COc1ccc2c(c1)OC(C)(C)C(c1ccc(Br)cc1)C2c1ccc(OCCN2CCCC2)cc1 (centres unmarked) , and I need its recorded IC50.
Output: 11.2

Next item in the queue.
Task: I have this compound here, COc1ccc2c(c1)OC(C)(C)C(c1ccccc1)C2c1ccc(OCCN2CCCC2)cc1 (centres unmarked) [Ormeloxifene, reference compound] , and I need its recorded IC50.
Output: 17.5
